Settings: human gut metagenome, 24 h, 2 µM; also: call rule not given here
READOUT_NAME: Bacterial Biotransformation

Example entries and their recorded answers appear below.
[[record]]
compound = "CCN(CC)CCOC(=O)C(Cc1cccc2ccccc12)CC1CCCO1.O=C(O)C(=O)O (stereo not given) [NAFRONYL OXALATE]"
readout_name = "Bacterial Biotransformation"
endpoint_result = "Compound metabolized"

[[record]]
compound = "CC(C)(Oc1ccc(CCNC(=O)c2ccc(Cl)cc2)cc1)C(=O)O [BEZAFIBRATE]"
readout_name = "Bacterial Biotransformation"
endpoint_result = "Compound metabolized"

[[record]]
compound = "Cc1ccc(S(=O)(=O)NC(=O)NN2CCCCCC2)cc1 [TOLAZAMIDE]"
readout_name = "Bacterial Biotransformation"
endpoint_result = "Compound metabolized"

[[record]]
compound = "CN1CC(=O)N2[C@H](c3ccc4c(c3)OCO4)c3[nH]c4ccccc4c3C[C@@H]2C1=O"
readout_name = "Bacterial Biotransformation"
endpoint_result = "Compound metabolized"


In the following, a different compound is considered.
### Prompt # Bacterial Biotransformation lookup, item CN/C(=N/CCSCc1nc[nH]c1C)NC#N
### Response Compound metabolized

====

Experiment: The drug is tested on WLS-007 corresponding to human gut metagenome with ENA study accession number: PRJEB37062 and ENA sample accession number: ERS12561742 for biotransformation under anaerobic condition. The drug concentrations were measured over 9 timepoints collected between 0 and 24 hours of incubation by liquid-chromatography-coupled mass spectrometry (LC–MS)
Conditions: 2 µM
READOUT_NAME: Bacterial Biotransformation

Example entries and their recorded answers appear below.
[[record]]
compound = "CC(=O)OCC(=O)[C@@]12N=C(C)O[C@@H]1C[C@H]1[C@@H]3CCC4=CC(=O)C=C[C@]4(C)[C@H]3[C@@H](O)C[C@@]12C"
readout_name = "Bacterial Biotransformation"
endpoint_result = "Compound metabolized"

[[record]]
compound = "Cc1nc2n(c(=O)c1CCN1CCC(c3noc4cc(F)ccc34)CC1)CCCC2"
readout_name = "Bacterial Biotransformation"
endpoint_result = "Compound metabolized"

[[record]]
compound = "CC(Oc1c(Cl)cccc1Cl)C1=NCCN1 (configuration not stated)"
readout_name = "Bacterial Biotransformation"
endpoint_result = "Compound metabolized"

[[record]]
compound = "OC(CCN1CCCCC1)(c1ccccc1)C1CC2C=CC1C2 (configuration not stated)"
readout_name = "Bacterial Biotransformation"
endpoint_result = "Compound NOT metabolized"

[[record]]
compound = "O=C1NCC2(CCN(CCc3ccccc3)CC2)O1 [FENSPIRIDE]"
readout_name = "Bacterial Biotransformation"
endpoint_result = "Compound NOT metabolized"

[[record]]
compound = "CNCCC(Oc1ccc(C(F)(F)F)cc1)c1ccccc1 (configuration not stated)"
readout_name = "Bacterial Biotransformation"
endpoint_result = "Compound NOT metabolized"

[[record]]
compound = "O=C(O)CCc1nc(-c2ccccc2)c(-c2ccccc2)o1"
readout_name = "Bacterial Biotransformation"
endpoint_result = "Compound metabolized"

[[record]]
compound = "COCCc1ccc(OCC(O)CNC(C)C)cc1.COCCc1ccc(OCC(O)CNC(C)C)cc1.O=C(O)C(O)C(O)C(=O)O (configuration not stated) [METOPROLOL TARTRATE]"
readout_name = "Bacterial Biotransformation"
endpoint_result = "Compound NOT metabolized"


### Prompt # Bacterial Biotransformation lookup, item COc1ccc2c3c1O[C@H]1C[C@@H](O)C=C[C@@]31CCN(C)C2
### Response Compound NOT metabolized

### Prompt # Bacterial Biotransformation lookup, item CC(C)N(CCC(C(N)=O)(c1ccccc1)c1ccccn1)C(C)C.O=P(O)(O)O (configuration not stated) [DISOPYRAMIDE PHOSPHATE]
### Response Compound metabolized

### Prompt # Bacterial Biotransformation lookup, item C[C@@H]1CC[C@H]2[C@@H](C)C(=O)O[C@@H]3O[C@@]4(C)CC[C@@H]1[C@]32OO4
### Response Compound metabolized

====

Assay: The drug is tested on Z-009 corresponding to pig gut metagenome with ENA study accession number: PRJEB37062 and ENA sample accession number: ERS12561809 for biotransformation under anaerobic condition. The drug concentrations were measured over 9 timepoints collected between 0 and 24 hours of incubation by liquid-chromatography-coupled mass spectrometry (LC–MS)
Details: 2 µM
READOUT_NAME: Bacterial Biotransformation

Example entries and their recorded answers appear below.
[[record]]
molecule = "Cc1ccc(/C(=C\\CN2CCCC2)c2ccccn2)cc1"
endpoint_result = "Compound NOT metabolized"

[[record]]
molecule = "CN1CCOC(c2ccccc2)c2ccccc2C1 (centres undefined)"
endpoint_result = "Compound NOT metabolized"

[[record]]
molecule = "CN1C(C(=O)Nc2ccccn2)=C(O)c2sccc2S1(=O)=O"
endpoint_result = "Compound NOT metabolized"

[[record]]
molecule = "COC1=CC(=O)C[C@@H](C)[C@]12Oc1c(Cl)c(OC)cc(OC)c1C2=O"
endpoint_result = "Compound metabolized"

[[record]]
molecule = "CCCc1nn(C)c2c(=O)[nH]c(-c3cc(S(=O)(=O)N4CCN(C)CC4)ccc3OCC)nc12.O=C(O)CC(O)(CC(=O)O)C(=O)O [SILDENAFIL CITRATE]"
endpoint_result = "Compound NOT metabolized"

[[record]]
molecule = "CC[C@@H](CO)NC(=O)[C@@H]1C=C2c3cccc4c3c(cn4C)C[C@H]2N(C)C1.O=C(O)/C=C\\C(=O)O [METHYSERGIDE MALEATE]"
endpoint_result = "Compound NOT metabolized"


### Prompt # Bacterial Biotransformation lookup, item COC(=O)Nc1nc2ccc(C(=O)c3ccccc3)cc2[nH]1
### Response Compound metabolized

### Prompt # Bacterial Biotransformation lookup, item Nc1ccc(/N=N/c2ccccc2)c(N)n1
### Response Compound metabolized

### Prompt # Bacterial Biotransformation lookup, item O=C(NCc1ccccc1)OCCO [BURAMATE]
### Response Compound NOT metabolized

====

Details: human gut metagenome, 24 h, 2 µM
READOUT_NAME: Bacterial Biotransformation

[[record]]
molecule = "CC(=O)CC(c1ccccc1)c1c(O)c2ccccc2oc1=O (stereo unspecified)"
readout_name = "Bacterial Biotransformation"
endpoint_result = "Compound metabolized"

[[record]]
molecule = "NC(=O)N1c2ccccc2CC(=O)c2ccccc21 [OXCARBAZEPINE]"
readout_name = "Bacterial Biotransformation"
endpoint_result = "Compound metabolized"

[[record]]
molecule = "CC(=O)OCC(=O)[C@@]1(O)[C@@H](C)C[C@H]2[C@@H]3CCC4=CC(=O)C=C[C@]4(C)[C@@]3(F)[C@@H](O)C[C@@]21C [BETAMETHASONE ACETATE]"
readout_name = "Bacterial Biotransformation"
endpoint_result = "Compound metabolized"

[[record]]
molecule = "CC[C@H](C)C(=O)O[C@H]1C[C@@H](C)C=C2C=C[C@H](C)[C@H](CC[C@@H]3C[C@@H](O)CC(=O)O3)[C@H]21"
readout_name = "Bacterial Biotransformation"
endpoint_result = "Compound NOT metabolized"

[[record]]
molecule = "C[C@@H]1C[C@H]2[C@@H]3CCC4=CC(=O)C=C[C@]4(C)[C@@]3(F)[C@@H](O)C[C@]2(C)[C@@]1(O)C(=O)CO"
readout_name = "Bacterial Biotransformation"
endpoint_result = "Compound NOT metabolized"


### Prompt # Bacterial Biotransformation lookup, item O=C1NCC2(CCN(CCc3ccccc3)CC2)O1 [FENSPIRIDE]
### Response Compound NOT metabolized

### Prompt # Bacterial Biotransformation lookup, item CCCc1nc2c(C)cc(-c3nc4ccccc4n3C)cc2n1Cc1ccc(-c2ccccc2C(=O)O)cc1
### Response Compound metabolized

### Prompt # Bacterial Biotransformation lookup, item CCC(COC(=O)c1cc(OC)c(OC)c(OC)c1)(c1ccccc1)N(C)C.O=C(O)/C=C\C(=O)O (stereo unspecified)
### Response Compound NOT metabolized

====

Assay: The drug is tested on Z-004 corresponding to metagenome with ENA study accession number: PRJEB37062 and ENA sample accession number: ERS12561804 for biotransformation under anaerobic condition. The drug concentrations were measured over 9 timepoints collected between 0 and 24 hours of incubation by liquid-chromatography-coupled mass spectrometry (LC–MS)
Settings: 2 µM
READOUT_NAME: Bacterial Biotransformation

Example entries and their recorded answers appear below.
[[record]]
compound = "CN(C)CCC=C1c2ccccc2C=Cc2ccccc21"
endpoint_result = "Compound metabolized"

[[record]]
compound = "CC(C(=O)O)c1ccc2c(c1)Cc1cccnc1O2 (configuration not stated)"
endpoint_result = "Compound metabolized"

[[record]]
compound = "CN/C(=N/CCSCc1nc[nH]c1C)NC#N"
endpoint_result = "Compound NOT metabolized"

[[record]]
compound = "CC(CN1c2ccccc2Sc2ccccc21)N(C)C (configuration not stated)"
endpoint_result = "Compound NOT metabolized"

[[record]]
compound = "CNS(=O)(=O)Cc1ccc2[nH]cc(CCN(C)C)c2c1.O=C(O)CCC(=O)O [SUMATRIPTAN SUCCINATE]"
endpoint_result = "Compound NOT metabolized"

[[record]]
compound = "CCN(CC)C(=O)/C(C#N)=C/c1cc(O)c(O)c([N+](=O)[O-])c1"
endpoint_result = "Compound metabolized"


### Prompt # Bacterial Biotransformation lookup, item CC(C)c1nc(CN(C)C(=O)N[C@H](C(=O)N[C@@H](Cc2ccccc2)C[C@H](O)[C@H](Cc2ccccc2)NC(=O)OCc2cncs2)C(C)C)cs1
### Response Compound NOT metabolized

### Prompt # Bacterial Biotransformation lookup, item CC(=O)CC(c1ccccc1)c1c(O)c2ccccc2oc1=O (configuration not stated)
### Response Compound metabolized

### Prompt # Bacterial Biotransformation lookup, item Cc1cn([C@H]2C[C@H](N=[N+]=[N-])[C@@H](CO)O2)c(=O)[nH]c1=O
### Response Compound metabolized

### Prompt # Bacterial Biotransformation lookup, item Nc1ccc(/N=N/c2ccccc2)c(N)n1
### Response Compound metabolized

### Prompt # Bacterial Biotransformation lookup, item Cc1ccc(/C(=C\CN2CCCC2)c2ccccn2)cc1
### Response Compound NOT metabolized

### Prompt # Bacterial Biotransformation lookup, item COc1ccccc1OCC(O)CN1CCN(CC(=O)Nc2c(C)cccc2C)CC1 (configuration not stated)
### Response Compound NOT metabolized

### Prompt # Bacterial Biotransformation lookup, item OC(CCN1CCCCC1)(c1ccccc1)C1CCCCC1 (configuration not stated)
### Response Compound metabolized

### Prompt # Bacterial Biotransformation lookup, item CCCc1nc(C(C)(C)O)c(C(=O)OCc2oc(=O)oc2C)n1Cc1ccc(-c2ccccc2-c2nnn[nH]2)cc1
### Response Compound metabolized

### Prompt # Bacterial Biotransformation lookup, item CCOC(=O)[C@H](CCc1ccccc1)N[C@@H](C)C(=O)N1[C@H](C(=O)O)C[C@@H]2CCC[C@@H]21
### Response Compound metabolized

### Prompt # Bacterial Biotransformation lookup, item CC[C@H](C)C(=O)O[C@H]1C[C@@H](C)C=C2C=C[C@H](C)[C@H](CC[C@@H]3C[C@@H](O)CC(=O)O3)[C@H]21
### Response Compound NOT metabolized

### Prompt # Bacterial Biotransformation lookup, item Br.CN(C)CCCC1(c2ccc(F)cc2)OCc2cc(C#N)ccc21 (configuration not stated) [CITALOPRAM HYDROBROMIDE]
### Response Compound NOT metabolized
